Provenance of the data: ChEMBL document CHEMBL1155993

Molecular target: ParE (Streptococcus pneumoniae)
Sequence (Q7X1P7 whole entry): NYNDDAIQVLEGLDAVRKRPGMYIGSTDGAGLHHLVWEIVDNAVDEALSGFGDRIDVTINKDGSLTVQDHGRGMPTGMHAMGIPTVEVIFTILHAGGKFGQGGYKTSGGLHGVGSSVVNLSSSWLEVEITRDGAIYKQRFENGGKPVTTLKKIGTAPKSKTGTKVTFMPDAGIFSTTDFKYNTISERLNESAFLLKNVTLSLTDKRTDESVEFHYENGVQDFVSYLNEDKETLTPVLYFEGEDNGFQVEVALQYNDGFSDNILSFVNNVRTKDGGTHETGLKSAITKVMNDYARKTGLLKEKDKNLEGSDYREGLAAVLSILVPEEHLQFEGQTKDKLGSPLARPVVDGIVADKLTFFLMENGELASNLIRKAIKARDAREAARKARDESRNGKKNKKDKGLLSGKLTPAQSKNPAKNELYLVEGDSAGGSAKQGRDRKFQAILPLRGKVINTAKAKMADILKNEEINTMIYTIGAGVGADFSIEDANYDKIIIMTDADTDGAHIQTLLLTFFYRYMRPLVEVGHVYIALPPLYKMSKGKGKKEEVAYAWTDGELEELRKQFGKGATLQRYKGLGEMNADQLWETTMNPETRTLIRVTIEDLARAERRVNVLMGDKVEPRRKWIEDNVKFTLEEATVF
pIC50: −log10 of the molar value.
The entries below come with measured pIC50 values attached.

Line Notation	pIC50
CCNC(=O)Nc1cn2c(-c3ncc(C)cn3)cc(-c3cnc(N4CCCC4)nc3)cc2n1	6.44
CCNC(=O)Nc1cn2c(-c3ncc(C)cn3)cc(-c3ccc(OC)nc3)cc2n1	6.83
CCC(=O)Nc1cn2c(-c3ncc(C)cn3)cc(-c3cccnc3)cc2n1	5.30
CCNC(=O)Nc1cn2c(-c3ncccn3)cc(-c3cncnc3)cc2n1	6.55
CCNC(=O)Nc1cn2c(-c3ncc(C)cn3)cc(-c3ccn(CC(=O)O)c(=O)c3)cc2n1	5.67
CCNC(=O)Nc1cn2c(-c3nc(C(F)(F)F)cc(C(F)(F)F)n3)cc(-c3cccnc3)cc2n1	6.13
CCNC(=O)Nc1cn2c(-c3ncc(C)cn3)cc(-c3ccn(CCOC)c(=O)c3)cc2n1	5.79
CCNC(=O)Nc1cn2c(-c3nccc(C4CC4)n3)cc(-c3cccnc3)cc2n1	5.43
CCNC(=O)Nc1cn2c(-c3nccc(C(=O)OC)n3)cc(-c3cccnc3)cc2n1	6.04
CCNC(=O)Nc1cn2c(-c3ncc(C)cn3)cc(-c3cccnc3)cc2n1	6.60
CCNC(=O)Nc1cn2c(-c3ncccn3)cc(-c3cnc(N(C)C)nc3)cc2n1	6.21
CCNC(=O)Nc1cn2c(-c3ncc(C)cn3)cc(-c3ccn(CCF)c(=O)c3)cc2n1	5.00
CCNC(=O)Nc1cn2c(-c3ncc(C(F)(F)F)cn3)cc(-c3cccnc3)cc2n1	6.44
CCNC(=O)Nc1cn2c(-c3nc(C)cc(C(F)(F)F)n3)cc(-c3cccnc3)cc2n1	6.26
CCNC(=O)Nc1cn2c(-c3nc(C)cc(C)n3)cc(-c3cccnc3)cc2n1	6.27
CCCn1ccc(-c2cc(-c3ncc(C)cn3)n3cc(NC(=O)NCC)nc3c2)cc1=O	5.99
CNC(=O)Nc1cn2c(-c3ncc(C)cn3)cc(-c3cccnc3)cc2n1	6.20
CO[C@@H]1[C@@H](OC(N)=O)[C@@H](O)[C@H](Oc2ccc3c(O)c(NC(=O)c4ccc(O)c(CC=C(C)C)c4)c(=O)oc3c2C)OC1(C)C	5.69
CCCCNC(=O)Nc1cn2c(-c3ncc(C)cn3)cc(-c3cccnc3)cc2n1	5.32
CCNC(=O)Nc1cn2c(-c3ncc(S(C)(=O)=O)cn3)cc(-c3cccnc3)cc2n1	5.74
CCNC(=O)Nc1cn2c(-c3nccc(C)n3)cc(-c3cnc(N(C)C)nc3)cc2n1	6.37
CCNC(=O)Nc1cn2c(-c3ncccn3)cc(-c3cccnc3)cc2n1	6.35
CCNC(=O)Nc1cn2c(-c3ncc(C)cn3)cc(-c3cnc(OC)nc3)cc2n1	5.44
Cc1cnc(-c2cc(-c3cccnc3)cc3nc(NC(=O)N(C)C(F)(F)F)cn23)nc1	6.30
CCNC(=O)Nc1cn2c(-c3ncccn3)cc(-c3ccc(C)nc3)cc2n1	6.92
CCNC(=O)Nc1cn2c(-c3ncc(C(C)C)cn3)cc(-c3cccnc3)cc2n1	5.86
CCNC(=O)Nc1cn2c(-c3ncc(Cl)cn3)cc(-c3cccnc3)cc2n1	6.38
CCNC(=O)Nc1cn2c(-c3ncc(C)cn3)cc(-c3ccc(C)nc3)cc2n1	6.43
CCOC(=O)Nc1cn2c(-c3nccc(C)n3)cc(-c3cnc(N(C)C)nc3)cc2n1	5.21
CCNC(=O)Nc1cn2c(-c3ncc(C)cn3)cc(-c3ccn(CC)c(=O)c3)cc2n1	6.20
Cc1cnc(-c2cc(-c3cccnc3)cc3nc(NC(=O)NC4CC4)cn23)nc1	6.24
CCNC(=O)Nc1cn2c(-c3ncc(F)cn3)cc(-c3cccnc3)cc2n1	6.44
CCNC(=O)Nc1cn2c(-c3ncc(C)cn3)cc(-c3cncnc3)cc2n1	6.59
CCNC(=O)Nc1cn2c(-c3ncc(CC)cn3)cc(-c3cccnc3)cc2n1	6.58
CCNC(=O)Nc1cn2c(-c3ncc(C)cn3)cc(-c3cnc(N(C)C)nc3)cc2n1	5.86

---

The entries below come with measured MIC values attached.
test system: Streptococcus pneumoniae; assay: Antibacterial activity against Streptococcus pneumoniae SP-3 by NCCLS method; format: functional

Line Notation	Measured On	MIC, µg/mL
CCC(=O)Nc1cn2c(-c3ncc(C)cn3)cc(-c3cccnc3)cc2n1	Streptococcus pneumoniae	16
CCNC(=O)Nc1cn2c(-c3ncc(C)cn3)cc(-c3ccn(CCOC)c(=O)c3)cc2n1	Streptococcus pneumoniae	0.06
CCOC(=O)Nc1cn2c(-c3nccc(C)n3)cc(-c3cnc(N(C)C)nc3)cc2n1	Streptococcus pneumoniae	0.5
CCNC(=O)Nc1cn2c(-c3ncc(C)cn3)cc(-c3cncnc3)cc2n1	Streptococcus pneumoniae	0.25
CCNC(=O)Nc1cn2c(-c3ncc(C)cn3)cc(-c3cnc(OC)nc3)cc2n1	Streptococcus pneumoniae	16
CCNC(=O)Nc1cn2c(-c3ncc(C)cn3)cc(-c3cnc(N(C)C)nc3)cc2n1	Streptococcus pneumoniae	0.25
CCNC(=O)Nc1cn2c(-c3ncc(C)cn3)cc(-c3cccnc3)cc2n1	Streptococcus pneumoniae	0.125
CCNC(=O)Nc1cn2c(-c3ncc(Cl)cn3)cc(-c3cccnc3)cc2n1	Streptococcus pneumoniae	0.06
CCNC(=O)Nc1cn2c(-c3nccc(C)n3)cc(-c3cnc(N(C)C)nc3)cc2n1	Streptococcus pneumoniae	0.25
CCNC(=O)Nc1cn2c(-c3ncc(C)cn3)cc(-c3ccc(C)nc3)cc2n1	Streptococcus pneumoniae	0.5
CNC(=O)Nc1cn2c(-c3ncc(C)cn3)cc(-c3cccnc3)cc2n1	Streptococcus pneumoniae	1
CCNC(=O)Nc1cn2c(-c3nc(C(F)(F)F)cc(C(F)(F)F)n3)cc(-c3cccnc3)cc2n1	Streptococcus pneumoniae	0.25
CCNC(=O)Nc1cn2c(-c3ncc(C)cn3)cc(-c3ccn(CC)c(=O)c3)cc2n1	Streptococcus pneumoniae	0.06
CCNC(=O)Nc1cn2c(-c3ncc(C(F)(F)F)cn3)cc(-c3cccnc3)cc2n1	Streptococcus pneumoniae	0.5
CCNC(=O)Nc1cn2c(-c3ncc(C)cn3)cc(-c3ccc(OC)nc3)cc2n1	Streptococcus pneumoniae	0.25
CCNC(=O)Nc1cn2c(-c3nccc(C4CC4)n3)cc(-c3cccnc3)cc2n1	Streptococcus pneumoniae	0.125
CCNC(=O)Nc1cn2c(-c3ncc(C(C)C)cn3)cc(-c3cccnc3)cc2n1	Streptococcus pneumoniae	0.25
CCNC(=O)Nc1cn2c(-c3ncccn3)cc(-c3cccnc3)cc2n1	Streptococcus pneumoniae	0.125
CCNC(=O)Nc1cn2c(-c3ncc(F)cn3)cc(-c3cccnc3)cc2n1	Streptococcus pneumoniae	0.125
CCNC(=O)Nc1cn2c(-c3ncccn3)cc(-c3cnc(N(C)C)nc3)cc2n1	Streptococcus pneumoniae	0.125

---

experiment: Bioavailability in rat; assay type: ADME, organism-based; details: in vivo

Line Notation	Display Unit	bioavailability
CCNC(=O)Nc1cn2c(-c3ncccn3)cc(-c3cccnc3)cc2n1	%	56
CCNC(=O)Nc1cn2c(-c3ncc(C)cn3)cc(-c3cccnc3)cc2n1	%	99

---

tested on: Staphylococcus aureus; assay: Antibacterial activity against methicillin resistant Staphylococcus aureus SA-1417 by NCCLS method; assay type: functional
The entries below come with measured log10 of MIC values attached.
Readout Name: log10 of MIC (log10 of the value in µg/mL)

Line Notation	log10 of MIC
CCCn1ccc(-c2cc(-c3ncc(C)cn3)n3cc(NC(=O)NCC)nc3c2)cc1=O	-0.60
CCNC(=O)Nc1cn2c(-c3ncc(C)cn3)cc(-c3ccn(CCOC)c(=O)c3)cc2n1	-0.60
CCNC(=O)Nc1cn2c(-c3ncc(C)cn3)cc(-c3ccn(CC(=O)O)c(=O)c3)cc2n1	1.51
CCNC(=O)Nc1cn2c(-c3ncc(C(F)(F)F)cn3)cc(-c3cccnc3)cc2n1	0.00
CCNC(=O)Nc1cn2c(-c3ncc(C)cn3)cc(-c3cccnc3)cc2n1	-0.30
CCNC(=O)Nc1cn2c(-c3nc(C(F)(F)F)cc(C(F)(F)F)n3)cc(-c3cccnc3)cc2n1	0.60
CCNC(=O)Nc1cn2c(-c3nc(C)cc(C)n3)cc(-c3cccnc3)cc2n1	0.60
CCNC(=O)Nc1cn2c(-c3ncc(CC)cn3)cc(-c3cccnc3)cc2n1	0.00
CCNC(=O)Nc1cn2c(-c3ncccn3)cc(-c3cccnc3)cc2n1	-0.30
